Each entry below lists one item and its recorded pIC50 value.
- System Under Test: HDAC8 (Homo sapiens (Human), UniProt Q9BY41)
- Sequence (Q9BY41 whole entry): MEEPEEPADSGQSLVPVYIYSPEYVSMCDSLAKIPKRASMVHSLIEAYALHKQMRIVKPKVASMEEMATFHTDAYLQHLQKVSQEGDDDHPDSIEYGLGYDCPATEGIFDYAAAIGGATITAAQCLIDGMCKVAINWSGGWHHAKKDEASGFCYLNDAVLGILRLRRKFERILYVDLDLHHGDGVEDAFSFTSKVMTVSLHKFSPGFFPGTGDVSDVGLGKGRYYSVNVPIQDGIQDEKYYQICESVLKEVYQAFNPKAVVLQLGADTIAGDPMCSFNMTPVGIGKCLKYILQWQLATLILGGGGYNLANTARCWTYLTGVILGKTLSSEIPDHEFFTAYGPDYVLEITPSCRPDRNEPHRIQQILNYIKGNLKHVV
pIC50: −log10 of the molar value.

                           substance_smiles  measurement_label  test_result
0  Nc1ccc(-c2ccc(F)cc2)nc1NC(=O)c1ccc(N2CCOCC2)nc1              pIC50       ≤ 4.30
1  CN1CCN(c2ccc(C(=O)Nc3nc(-c4ccc(F)cc4)ccc3N)cn2)CC1              pIC50       ≤ 4.30

Next compound, please.
*Q* Returns the measured pIC50 for the input compound. Input: Nc1ccc(-c2ccc(F)cc2)nc1NC(=O)c1ccc(N2CCNCC2)nc1
*A* ≤ 4.30

----------
- System Under Test: HDAC10 (Homo sapiens (Human), UniProt Q969S8)
- Sequence (Q969S8 whole entry): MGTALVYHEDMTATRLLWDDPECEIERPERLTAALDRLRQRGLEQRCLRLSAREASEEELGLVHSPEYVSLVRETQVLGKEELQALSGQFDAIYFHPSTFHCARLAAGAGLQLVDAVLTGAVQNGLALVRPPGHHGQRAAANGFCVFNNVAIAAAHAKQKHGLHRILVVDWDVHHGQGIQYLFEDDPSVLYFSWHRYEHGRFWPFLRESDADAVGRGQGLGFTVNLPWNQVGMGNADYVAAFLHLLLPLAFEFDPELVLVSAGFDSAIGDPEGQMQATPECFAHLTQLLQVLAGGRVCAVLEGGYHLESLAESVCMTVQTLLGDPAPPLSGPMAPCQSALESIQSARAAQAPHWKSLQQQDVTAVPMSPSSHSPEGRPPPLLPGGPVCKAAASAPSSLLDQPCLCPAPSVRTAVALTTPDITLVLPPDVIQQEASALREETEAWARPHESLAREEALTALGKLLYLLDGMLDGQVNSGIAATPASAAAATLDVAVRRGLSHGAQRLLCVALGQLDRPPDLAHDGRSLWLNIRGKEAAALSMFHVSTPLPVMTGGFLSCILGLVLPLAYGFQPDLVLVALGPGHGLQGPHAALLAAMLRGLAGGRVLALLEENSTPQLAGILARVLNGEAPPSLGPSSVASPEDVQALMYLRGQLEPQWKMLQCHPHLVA
- Protocol Text: biochemical HDAC assay (Reaction Biology Corp.), HDAC10
- Conditions: fluorogenic peptide RHKK(Ac)AMC; 10-dose, 3-fold dilution from 10 μM
Measurement Label: IC50

Use the examples below as a reference point.
>>> print(df.to_string())
                           substance_smiles  measurement_label  test_result
0  Nc1ccc(-c2ccc(F)cc2)nc1NC(=O)c1ccc(N2CCNCC2)nc1               IC50   1 to 50 µM
1  CN1CCN(c2ccc(C(=O)Nc3nc(-c4ccc(F)cc4)ccc3N)cn2)CC1               IC50   1 to 50 µM

Next compound, please.
*Q* Returns the measured IC50 for the input compound. Input: Nc1ccc(-c2ccc(F)cc2)nc1NC(=O)c1ccc(N2CCOCC2)nc1
*A* 1 to 50 µM

----------
Record: IC50 reported on HDAC2 (Homo sapiens (Human)).
Sequence (Q92769 whole entry): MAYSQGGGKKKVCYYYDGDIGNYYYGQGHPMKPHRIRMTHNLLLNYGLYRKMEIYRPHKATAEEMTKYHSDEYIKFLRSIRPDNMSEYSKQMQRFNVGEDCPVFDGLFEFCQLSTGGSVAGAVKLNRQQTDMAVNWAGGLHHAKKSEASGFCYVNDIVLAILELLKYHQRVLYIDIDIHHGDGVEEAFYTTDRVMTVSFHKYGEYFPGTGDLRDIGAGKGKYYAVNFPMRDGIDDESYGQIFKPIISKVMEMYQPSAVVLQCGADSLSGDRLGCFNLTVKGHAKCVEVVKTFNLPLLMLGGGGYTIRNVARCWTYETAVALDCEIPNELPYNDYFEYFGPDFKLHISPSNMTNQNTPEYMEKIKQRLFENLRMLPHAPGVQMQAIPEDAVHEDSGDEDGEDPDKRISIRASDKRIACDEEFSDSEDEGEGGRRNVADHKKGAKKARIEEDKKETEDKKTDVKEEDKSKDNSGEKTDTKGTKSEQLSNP

Use the examples below as a reference point.
                           substance_smiles             system_under_test     test_result
0  CN1CCN(c2ccc(C(=O)Nc3nc(-c4cccs4)ccc3N)cn2)CC1  HDAC2 (Homo sapiens (Human))        < 200 nM
1  Nc1ccc(-c2ccccc2)nc1NC(=O)c1cnc(NC2CC2)nc1  HDAC2 (Homo sapiens (Human))        < 200 nM
2  Nc1ccc(-c2ccc(F)cc2)nc1NC(=O)c1ccc(-c2cccnc2)nc1  HDAC2 (Homo sapiens (Human))  200 to 1000 nM
3  CN1CCN(c2ccc(C(=O)Nc3nc(-c4ccc(F)cc4)ccc3N)cn2)CC1  HDAC2 (Homo sapiens (Human))        < 200 nM
4  Nc1ccc(-c2ccc(F)cc2)nc1NC(=O)c1cnc(NC2CC2)nc1  HDAC2 (Homo sapiens (Human))        < 200 nM

Next compound, please.
*Q* Returns the measured IC50 for the input compound. Input: Nc1ccc(-c2ccc(F)cc2)nc1NC(=O)c1cccnc1
*A* < 200 nM

----------
- System Under Test: HDAC6 (Homo sapiens (Human), UniProt Q9UBN7)
- Sequence (Q9UBN7 whole entry): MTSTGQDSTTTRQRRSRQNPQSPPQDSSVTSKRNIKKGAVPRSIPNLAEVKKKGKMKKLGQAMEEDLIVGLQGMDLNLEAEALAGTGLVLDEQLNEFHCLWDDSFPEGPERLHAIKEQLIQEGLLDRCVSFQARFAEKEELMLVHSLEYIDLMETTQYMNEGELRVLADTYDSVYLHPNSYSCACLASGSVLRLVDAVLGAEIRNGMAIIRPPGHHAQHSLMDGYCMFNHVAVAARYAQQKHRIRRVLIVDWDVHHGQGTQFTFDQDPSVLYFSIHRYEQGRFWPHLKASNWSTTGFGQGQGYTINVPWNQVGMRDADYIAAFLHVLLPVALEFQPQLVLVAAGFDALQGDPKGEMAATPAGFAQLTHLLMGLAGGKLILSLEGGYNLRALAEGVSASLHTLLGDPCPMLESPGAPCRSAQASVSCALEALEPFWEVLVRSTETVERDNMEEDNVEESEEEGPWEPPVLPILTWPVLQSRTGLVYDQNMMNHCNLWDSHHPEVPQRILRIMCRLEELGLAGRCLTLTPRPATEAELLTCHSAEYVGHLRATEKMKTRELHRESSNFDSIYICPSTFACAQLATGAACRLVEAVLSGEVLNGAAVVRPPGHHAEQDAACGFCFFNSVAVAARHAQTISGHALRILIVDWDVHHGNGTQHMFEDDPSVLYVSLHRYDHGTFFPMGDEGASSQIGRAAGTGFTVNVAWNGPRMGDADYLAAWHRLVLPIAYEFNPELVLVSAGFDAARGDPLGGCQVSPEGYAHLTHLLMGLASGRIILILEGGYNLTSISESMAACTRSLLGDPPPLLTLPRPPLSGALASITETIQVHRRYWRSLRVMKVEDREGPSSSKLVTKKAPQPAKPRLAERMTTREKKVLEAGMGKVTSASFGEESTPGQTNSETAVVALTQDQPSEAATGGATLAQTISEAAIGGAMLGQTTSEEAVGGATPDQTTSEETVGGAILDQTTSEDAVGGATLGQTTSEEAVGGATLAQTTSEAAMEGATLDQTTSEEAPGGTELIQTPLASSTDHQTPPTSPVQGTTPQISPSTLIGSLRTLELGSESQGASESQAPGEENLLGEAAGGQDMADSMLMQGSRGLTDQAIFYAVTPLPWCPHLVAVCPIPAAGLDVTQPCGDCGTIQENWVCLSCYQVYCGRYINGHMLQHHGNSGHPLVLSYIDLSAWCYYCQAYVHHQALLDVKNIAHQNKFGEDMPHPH
pIC50: −log10 of the molar value.
Each entry below lists one item and its recorded pIC50 value.

>>> print(df.to_string())
                           substance_smiles                         system_under_test  measurement_label  test_result
0  CN1CCN(c2ccc(C(=O)Nc3nc(-c4ccc(F)cc4)ccc3N)cn2)CC1  HDAC6 (Homo sapiens (Human), UniProt Q9UBN7)              pIC50       ≤ 4.30

*Q* Returns the measured pIC50 for the input compound. Input: Nc1ccc(-c2ccc(F)cc2)nc1NC(=O)c1ccc(N2CCNCC2)nc1
*A* 4.30 to 6.00

----------
Record: pIC50 reported on UniProt Q92769.
pIC50: −log10 of the molar value.

                           substance_smiles  test_result
0  CN1CCN(c2ccc(C(=O)Nc3nc(-c4ccccc4)ccc3N)cn2)CC1       > 6.70

*Q* Returns the measured pIC50 for the input compound. Input: Nc1ccc(-c2ccccc2)nc1NC(=O)c1ccc(N2CCOCC2)nc1
*A* > 6.70

*Q* How about this compound: COc1ccc(-c2ccc(N)c(NC(=O)c3ccc(N4CCN(C)CC4)nc3)n2)cc1
*A* 6.00 to 6.70

*Q* How about this compound: Nc1ccc(-c2ccc(F)cc2)nc1NC(=O)c1ccc(N2CCOCC2)nc1
*A* > 6.70
